# System: JCPyV
# Experiment description: Dose dependent inhibition of infection, flow cytometric scoring, SVG-A cells
# Type: cell-based, JC polyomavirus
# Experimental setup: JC polyomavirus; SVG-A cells, VP1 at 72 h, compared to vehicle control; read-out: calculated EC50, decrease in percentage of cells expressing VP1
Measured endpoint: pEC50
Scale note: pEC50 = -log10(concentration in M).

Answer with the recorded pEC50 of Cc1ccc(C2Nc3ccccc3C(=O)N2c2ccccc2)s1 (stereo not shown) only.
4.55
